- Tested on: 16HBE cells (human epithelial cells of bronchial origin)
- protocol: Cell viability test (MTT reduction)
- stated.conditions: 16HBE, 62.5 μM, 18 hours, MTT, vs untreated cells
Each item that follows carries a reported Average percentage of cell viability (±standard deviation).
Give the value, in units of %, as a plain number.

Known results for compounds:
| compound | measured.target | value.measured |
| --- | --- | --- |
| C[C@@]12CCC3[C@@](CCC4[C@](C)(COC(=O)C(=O)O)CCC[C@]43C)(CC1)C2 (stereo partly drawn) | 16HBE cells (human epithelial cells of bronchial origin) | 85.68 |
| C[C@@]12CCC3[C@@](CCC4[C@@](C)(COC(=O)C(=O)O)CCC[C@]43C)(CC1)C2 (stereo partly drawn) | 16HBE cells (human epithelial cells of bronchial origin) | 97.14 |
| C[C@]12C=C[C@@]3(CCC4[C@@](C)(COC(=O)CCC(=O)O)CCC[C@@]4(C)C3CC1)C2 (stereo partly drawn) | 16HBE cells (human epithelial cells of bronchial origin) | 102.15 |
| C[C@@]12CCC3[C@@](CCC4[C@@]3(C)CCC[C@@]4(C)C(=O)OC3OC(CO)C(O)C(O)C3O)(CC1)C2 (stereo partly drawn) | 16HBE cells (human epithelial cells of bronchial origin) | 99.27 |
| C[C@@]12CCC3[C@@](CCC4[C@@]3(C)CCC[C@@]4(C)C(=O)O)(CC1)C2 (stereo partly drawn) | 16HBE cells (human epithelial cells of bronchial origin) | 99.80 |

// below: Average percentage of cell viability (±standard deviation) requested for another compound
Returns the measured Average percentage of cell viability (±standard deviation) for the input compound. Input: C[C@]12C=C[C@@]3(CC[C@@H]4[C@@](C)(COC(=O)C(=O)O)CCC[C@@]4(C)[C@@H]3CC1)C2
76.33

* * *

Each item that follows carries a reported Average percentage of cell viability (±standard deviation).
- System: 16HBE cells (human epithelial cells of bronchial origin)
- protocol: Cell viability test (MTT reduction)
- stated.conditions: 16HBE, 125 μM, 18 hours, MTT, vs untreated cells
Give the value, in units of %, as a plain number.

| compound | unit.abbrev | value.measured |
| --- | --- | --- |
| C[C@]12C=C[C@@]3(CC[C@@H]4[C@@](C)(COC(=O)C(=O)O)CCC[C@@]4(C)[C@@H]3CC1)C2 | % | 71.99 |
| C[C@]12C=C[C@@]3(CCC4[C@@](C)(COC(=O)CCC(=O)O)CCC[C@@]4(C)C3CC1)C2 (stereo partly shown) | % | 105.88 |
| C[C@]12C=C[C@@]3(CCC4[C@@](C)(COC(=O)CC(=O)O)CCC[C@@]4(C)C3CC1)C2 (stereo partly shown) | % | 100.48 |
| C[C@@]12CCC3[C@@](CCC4[C@@](C)(COC(=O)C(=O)O)CCC[C@]43C)(CC1)C2 (stereo partly shown) | % | 98.42 |
| C[C@@]12CCC3[C@@](CCC4[C@](C)(COC(=O)C(=O)O)CCC[C@]43C)(CC1)C2 (stereo partly shown) | % | 78.02 |

Returns the measured Average percentage of cell viability (±standard deviation) for the input compound. Input: C[C@@]12CCC3[C@@](CCC4[C@@]3(C)CCC[C@@]4(C)C(=O)OC3OC(CO)C(O)C(O)C3O)(CC1)C2 (stereo partly shown)
106.23

Returns the measured Average percentage of cell viability (±standard deviation) for the input compound. Input: C[C@@]12CCC3[C@@](CCC4[C@@]3(C)CCC[C@@]4(C)C(=O)O)(CC1)C2 (stereo partly shown)
92.07

* * *

- System: 16HBE cells (human epithelial cells of bronchial origin)
- protocol: Cell viability test (MTT reduction)
- stated.conditions: 16HBE, 7.81 μM, 18 hours, MTT, vs untreated cells
property.name: Average percentage of cell viability (±standard deviation) (%)
Give the value, in units of %, as a plain number.

| molecule | value.measured |
| --- | --- |
| C[C@]12C=C[C@@]3(CC[C@@H]4[C@@](C)(COC(=O)C(=O)O)CCC[C@@]4(C)[C@@H]3CC1)C2 [BBN149, ent-beyer-15-en-18-O-oxalic acid] | 86.13 |
| C[C@@]12CCC3[C@@](CCC4[C@@]3(C)CCC[C@@]4(C)C(=O)O)(CC1)C2 (stereo partly drawn) [SR10, ent-beyeran-19-oic acid] | 101.00 |
| C[C@]12C=C[C@@]3(CCC4[C@@](C)(COC(=O)CCC(=O)O)CCC[C@@]4(C)C3CC1)C2 (stereo partly drawn) [FDS, ent-beyer-15-en-18-O-succinic acid] | 93.53 |
| C[C@@]12CCC3[C@@](CCC4[C@](C)(COC(=O)C(=O)O)CCC[C@]43C)(CC1)C2 (stereo partly drawn) [SR8, ent-beyeran-19-O-oxalic acid] | 90.33 |
| C[C@@]12CCC3[C@@](CCC4[C@@]3(C)CCC[C@@]4(C)C(=O)OC3OC(CO)C(O)C(O)C3O)(CC1)C2 (stereo partly shown) [SR4] | 92.44 |

Returns the measured Average percentage of cell viability (±standard deviation) for the input molecule. Input: C[C@]12C=C[C@@]3(CCC4[C@@](C)(COC(=O)CC(=O)O)CCC[C@@]4(C)C3CC1)C2 (stereo partly drawn) [FDM, ent-beyer-15-en-18-O-malonic acid]
97.93

Returns the measured Average percentage of cell viability (±standard deviation) for the input molecule. Input: C[C@@]12CCC3[C@@](CCC4[C@@](C)(COC(=O)C(=O)O)CCC[C@]43C)(CC1)C2 (stereo partly drawn) [FDO-H, ent-beyeran-18-O-oxalic acid]
100.25

* * *

Each item that follows carries a reported Average percentage of cell viability (±standard deviation).
- Tested on: 16HBE cells (human epithelial cells of bronchial origin)
- protocol: Cell viability test (MTT reduction);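 note: formazan absorbance at 570 nm after MTT reduction, corrected for cell-free blank wells, reported relative to untreated cells, from duplicate wells over three independent repeats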
- stated.conditions: 16HBE, 3.91 μM, 18 hours, MTT, vs untreated cells
Give the value, in units of %, as a plain number.

| molecule | unit.abbrev | value.measured |
| --- | --- | --- |
| C[C@]12C=C[C@@]3(CCC4[C@@](C)(COC(=O)CC(=O)O)CCC[C@@]4(C)C3CC1)C2 (stereo partly shown) | % | 96.70 |
| C[C@@]12CCC3[C@@](CCC4[C@](C)(COC(=O)C(=O)O)CCC[C@]43C)(CC1)C2 (stereo partly shown) | % | 97.84 |
| C[C@@]12CCC3[C@@](CCC4[C@@]3(C)CCC[C@@]4(C)C(=O)O)(CC1)C2 (stereo partly shown) | % | 104.95 |
| C[C@@]12CCC3[C@@](CCC4[C@@]3(C)CCC[C@@]4(C)C(=O)OC3OC(CO)C(O)C(O)C3O)(CC1)C2 (stereo partly shown) | % | 92.31 |
| C[C@]12C=C[C@@]3(CCC4[C@@](C)(COC(=O)CCC(=O)O)CCC[C@@]4(C)C3CC1)C2 (stereo partly shown) | % | 95.34 |

Returns the measured Average percentage of cell viability (±standard deviation) for the input molecule. Input: C[C@]12C=C[C@@]3(CC[C@@H]4[C@@](C)(COC(=O)C(=O)O)CCC[C@@]4(C)[C@@H]3CC1)C2
90.17

Returns the measured Average percentage of cell viability (±standard deviation) for the input molecule. Input: C[C@@]12CCC3[C@@](CCC4[C@@](C)(COC(=O)C(=O)O)CCC[C@]43C)(CC1)C2 (stereo partly shown)
94.57

* * *

- Tested on: P. aeruginosa PA14 col^R 5 (colistin-resistant strain)
- protocol: microbe, parasite or virus in culture
- Type: cell-based
- stated.conditions: read-out: IC90, synergy with colistin (8 μg/ml); PA14 ColR5, colistin 8 μg/ml (sub-inhibitory); minimum concentration causing at least 90% growth inhibition, 24 h
property.name: IC90

| molecule | IC90 |
| --- | --- |
| C[C@]12C=C[C@@]3(CCC4[C@@](C)(COC(=O)CC(=O)O)CCC[C@@]4(C)C3CC1)C2 (stereo partly shown) | > 250 µM |

Returns the measured IC90 for the input molecule. Input: COC(=O)[C@]1(C)CCC[C@@]2(C)C3CC[C@@]4(C)C[C@]3(CCC21)CC4=O (single isomer, unassigned; ent-16)
> 250 µM

Returns the measured IC90 for the input molecule. Input: C[C@@]12CCC3[C@@](CCC4[C@](C)(CO)CCC[C@]43C)(CC1)C2 (stereo partly shown)
> 250 µM

Returns the measured IC90 for the input molecule. Input: O=C(CCc1ccc(O)cc1)c1c(O)cc(O)cc1O
> 250 µM

Returns the measured IC90 for the input molecule. Input: C[C@]12C=C[C@@]3(CCC4[C@@](C)(CO)CCC[C@@]4(C)C3CC1)C2 (stereo partly shown)
> 250 µM

Returns the measured IC90 for the input molecule. Input: O=C(O)c1cc(O)c2c(c1)C(=O)c1cccc(O)c1C2=O
> 250 µM

Returns the measured IC90 for the input molecule. Input: CC1(C)C=Cc2c(cc(O)c3c(=O)c4cc5c(c(O)c4oc23)OC(C)(C)C=C5)O1
> 250 µM

Returns the measured IC90 for the input molecule. Input: C[C@@]12CCC3[C@@](CCC4[C@@]3(C)CCC[C@@]4(C)C(=O)OC3OC(CO)C(O)C(O)C3O)(CC1)C2 (stereo partly shown)
> 250 µM

Returns the measured IC90 for the input molecule. Input: COc1cc(O)c(O)c(CC=C(C)C)c1-c1coc2cc(O)cc(O)c2c1=O
> 250 µM

Entry source: patent US20220259249A1
